Entries and their measured EC50 follow.
- Test Target: human androgen receptor (Homo sapiens)
- Construct: expressed in transfected cells; host or cells: HEK293
- Sequence (P10275 whole entry): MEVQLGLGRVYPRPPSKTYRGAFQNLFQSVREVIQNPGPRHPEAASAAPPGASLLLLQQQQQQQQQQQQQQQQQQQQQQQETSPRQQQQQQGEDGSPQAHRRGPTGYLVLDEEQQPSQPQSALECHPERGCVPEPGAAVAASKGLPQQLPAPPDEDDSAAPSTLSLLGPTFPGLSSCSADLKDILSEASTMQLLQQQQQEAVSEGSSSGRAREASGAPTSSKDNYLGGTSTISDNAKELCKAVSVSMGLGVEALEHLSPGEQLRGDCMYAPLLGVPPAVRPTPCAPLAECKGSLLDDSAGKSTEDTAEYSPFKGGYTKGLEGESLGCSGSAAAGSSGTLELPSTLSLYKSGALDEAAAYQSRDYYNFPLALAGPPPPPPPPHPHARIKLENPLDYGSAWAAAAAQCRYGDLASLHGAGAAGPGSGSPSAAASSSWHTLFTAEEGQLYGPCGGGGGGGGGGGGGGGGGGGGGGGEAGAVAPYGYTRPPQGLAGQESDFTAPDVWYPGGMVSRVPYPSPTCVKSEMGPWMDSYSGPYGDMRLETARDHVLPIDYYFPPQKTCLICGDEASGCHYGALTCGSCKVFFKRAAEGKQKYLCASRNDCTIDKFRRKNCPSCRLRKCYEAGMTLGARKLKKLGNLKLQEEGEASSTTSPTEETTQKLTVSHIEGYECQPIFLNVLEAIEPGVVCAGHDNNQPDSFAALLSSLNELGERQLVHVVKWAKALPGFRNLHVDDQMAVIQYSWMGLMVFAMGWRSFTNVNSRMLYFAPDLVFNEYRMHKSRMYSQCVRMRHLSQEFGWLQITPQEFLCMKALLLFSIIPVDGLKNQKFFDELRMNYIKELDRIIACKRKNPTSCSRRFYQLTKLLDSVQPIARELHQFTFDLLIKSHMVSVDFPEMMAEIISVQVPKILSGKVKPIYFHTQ
- Experiment Description: Reporter assay of an androgen receptor responsive sequence (luciferase, transiently transfected HEK293 cells)
- Type: cell-based
- Assay Conditions: 24 hours incubation, relative to activity of 100 nM DHT, read-out: AR transcriptive activity (pEC50) (converted)
# number only, unit µM dropped from output

Illustrative cases are given below, each with its answer.
Considering CS(=O)(=O)NC(=O)c1nc(N(Cc2ccc(F)cn2)c2ccc(C#N)cc2)sc1Br [Compound 640] , its EC50 with human androgen receptor (Homo sapiens) was recorded as 0.316

Case Cc1sc(N(Cc2ccc(F)cc2)c2ccc(C#N)cc2)nc1C(=O)NS(=O)(=O)Cc1ccncc1 [Compound 501] , human androgen receptor (Homo sapiens), EC50 recorded as 0.0631

Summary line: Cc1sc(N(Cc2ccc(F)cc2)c2ccc(C(F)(F)F)nc2)nc1C(=O)NS(C)(=O)=O [Compound 469] , human androgen receptor (Homo sapiens), reported EC50 = 0.316

New cases:
Record Cc1sc(N(CCc2ccccc2O)c2ccc(C#N)cc2)nc1C(=O)NS(C)(=O)=O [Compound 379] / human androgen receptor (Homo sapiens), EC50 recorded as 0.251

EC50 on human androgen receptor (Homo sapiens) for Cc1oc(N(Cc2ccc(OC(F)(F)F)cc2)c2ccc(C#N)cc2)nc1C(=O)NS(C)(=O)=O [Compound 607] is 5.01
